test system: Human immunodeficiency virus 1; test: Antiviral activity against HIV1 A17 harbouring RT K103N/Y181C mutant infected in human C8166 cells assessed as protection against virus-induced cytopathic effect after 3 days by syncytium reduction assay; assay type: functional, organism-based; conditions: Human immunodeficiency virus 1, A17, C8166, 72 h
Assay Readout: pEC50
The meaning of pEC50 here: minus log10 of the concentration in molar units.

For this compound ( Cc1ccc(C(=O)Nc2cc(Cl)ccc2OCC(=O)Nc2ccc(S(N)(=O)=O)cc2C)cc1 ), measured pEC50 is 6.03

For this compound ( Cc1cc(S(N)(=O)=O)ccc1NC(=O)COc1ccc(Cl)cc1NC(=O)c1ccc2ccccc2c1 ), measured pEC50 is 5.05

For this compound ( Cc1cc(S(N)(=O)=O)ccc1NC(=O)COc1ccc(Cl)cc1NC(=O)/C=C/c1ccccc1 ), measured pEC50 is 3.81

* * *

tested on: C8166; experiment: Cytotoxicity against human C8166 cells assessed as decrease in cell viability by MTT assay; format: functional
Assay Readout: CC50
Just so you know, I need the unit written after the number.

Reported C8166 CC50 for item Cc1cn([C@H]2C[C@H](N=[N+]=[N-])[C@@H](CO)O2)c(=O)[nH]c1=O was 4910 µM

Reported C8166 CC50 for item Cc1cc(S(N)(=O)=O)ccc1NC(=O)COc1ccc(Cl)cc1NC(=O)c1cc(Cl)cc(Br)c1 was 114 µM

Reported C8166 CC50 for item Cc1cc(C)cc(C(=O)Nc2cc(Cl)ccc2OCC(=O)Nc2ccc(S(N)(=O)=O)cc2C)c1 was 36.5 µM

Reported C8166 CC50 for item Cc1cc(S(N)(=O)=O)ccc1NC(=O)COc1ccc(Cl)cc1NC(=O)c1cc(Cl)cc(C#N)c1 was 131 µM

Reported C8166 CC50 for item Cc1ccc(C(=O)Nc2cc(Cl)ccc2OCC(=O)Nc2ccc(S(N)(=O)=O)cc2C)cc1 was 54.2 µM

Reported C8166 CC50 for item Cc1cc(S(N)(=O)=O)ccc1NC(=O)COc1ccc(Cl)cc1NC(=O)c1ccccc1C was 67.3 µM

Reported C8166 CC50 for item Cc1cc(S(N)(=O)=O)ccc1NC(=O)COc1ccc(Cl)cc1NC(=O)c1cccc(Cl)c1 was 59.7 µM

Reported C8166 CC50 for item Cc1ccc(C(=O)Nc2cc(Cl)ccc2OCC(=O)Nc2ccc(S(N)(=O)=O)cc2C)c(C)c1 was 47.6 µM

Reported C8166 CC50 for item Cc1cc(S(N)(=O)=O)ccc1NC(=O)COc1ccc(Cl)cc1NC(=O)c1cc(Cl)ccc1Cl was 42.1 µM

* * *

assay: Therapeutic index, ratio of CC50 for human C8166 cells to EC50 for HIV1 A17 harbouring RT K103N/Y181C mutant infected in human C8166 cells; format: cell-based; conditions: read-out: Ratio CC50/EC50
Assay Readout: selectivity ratio
The reply should be a number, written without any unit.

For this compound ( Cc1cc(S(N)(=O)=O)ccc1NC(=O)COc1ccc(Cl)cc1NC(=O)/C=C/c1ccccc1 ), measured selectivity ratio is 1.06

For this compound ( Cc1cc(S(N)(=O)=O)ccc1NC(=O)COc1ccc(Cl)cc1NC(=O)c1cccc([N+](=O)[O-])c1 ), measured selectivity ratio is 128

For this compound ( Cc1cc(S(N)(=O)=O)ccc1NC(=O)COc1ccc(Cl)cc1NC(=O)c1cc(Cl)cc(Br)c1 ), measured selectivity ratio is 4.11

For this compound ( Cc1cc(S(N)(=O)=O)ccc1NC(=O)COc1ccc(Cl)cc1NC(=O)c1ccc(Cl)c(Cl)c1 ), measured selectivity ratio is 138

For this compound ( Cc1ccc(C(=O)Nc2cc(Cl)ccc2OCC(=O)Nc2ccc(S(N)(=O)=O)cc2C)cc1C ), measured selectivity ratio is 836

For this compound ( Cc1cc(S(N)(=O)=O)ccc1NC(=O)COc1ccc(Cl)cc1NC(=O)c1cc(Cl)cc(C#N)c1 ), measured selectivity ratio is 454

For this compound ( Cc1cc(S(N)(=O)=O)ccc1NC(=O)COc1ccc(Cl)cc1NC(=O)c1cc(Br)cc(Br)c1 ), measured selectivity ratio is 64.7
